Every entry's value here was drawn from PubChem BioAssay (NCATS).

- experimental-system: Cellular tumor antigen p53 (Homo sapiens)
- experimental-protocol: Primary qHTS for small molecule compounds that upregulate eGFP-tagged delta133p53alpha (in N-terminal) cells. (AID 2060322);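 also: cells pre-induced with doxycycline then dosed without doxycycline; series mostly up to about 56 µM; 0% = DMSO vehicle and 100% = reference activator; nearly all actives have a fitted effect of over 75% in size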
- run-parameters: NCI-H358 eGFP-delta133p53alpha fluorescence, 24 h; hits give high values
Results filed as inconclusive are left out.
quantity-measured: activation (%)
Provide the reading as a plain figure in %.

As a guide, the following entries are already answered.
>>> number("CC1CC(=O)[C@]2(O)C(C(=O)OCCc3ccc(O)cc3)=CO[C@@H](O[C@@H]3O[C@H](CO)[C@@H](O)[C@H](O)[C@H]3O)[C@H]12 (some centres undefined)")
-18.3
>>> number("CCOC(=O)N1c2ccc(C(F)(F)F)cc2[C@@H](N(Cc2cc(C(F)(F)F)cc(C(F)(F)F)c2)C(=O)OC)C[C@H]1CC")
-8.39

Which activation is reported with Cellular tumor antigen p53 (Homo sapiens) for this entry: `Cc1cccc(C(=O)NCN2CCN(c3ccccc3C#N)CC2)c1` ?
-16.7

Also need Cc1noc(-c2ccc(CSCCC(=O)O)cc2)c1NC(=O)OC(C)c1ccccc1Cl (centres undefined) , thanks.
-1.99
